Target: Protein deacetylase HDAC6 (Homo sapiens, UniProt Q9UBN7)
Sequence (Q9UBN7 whole entry): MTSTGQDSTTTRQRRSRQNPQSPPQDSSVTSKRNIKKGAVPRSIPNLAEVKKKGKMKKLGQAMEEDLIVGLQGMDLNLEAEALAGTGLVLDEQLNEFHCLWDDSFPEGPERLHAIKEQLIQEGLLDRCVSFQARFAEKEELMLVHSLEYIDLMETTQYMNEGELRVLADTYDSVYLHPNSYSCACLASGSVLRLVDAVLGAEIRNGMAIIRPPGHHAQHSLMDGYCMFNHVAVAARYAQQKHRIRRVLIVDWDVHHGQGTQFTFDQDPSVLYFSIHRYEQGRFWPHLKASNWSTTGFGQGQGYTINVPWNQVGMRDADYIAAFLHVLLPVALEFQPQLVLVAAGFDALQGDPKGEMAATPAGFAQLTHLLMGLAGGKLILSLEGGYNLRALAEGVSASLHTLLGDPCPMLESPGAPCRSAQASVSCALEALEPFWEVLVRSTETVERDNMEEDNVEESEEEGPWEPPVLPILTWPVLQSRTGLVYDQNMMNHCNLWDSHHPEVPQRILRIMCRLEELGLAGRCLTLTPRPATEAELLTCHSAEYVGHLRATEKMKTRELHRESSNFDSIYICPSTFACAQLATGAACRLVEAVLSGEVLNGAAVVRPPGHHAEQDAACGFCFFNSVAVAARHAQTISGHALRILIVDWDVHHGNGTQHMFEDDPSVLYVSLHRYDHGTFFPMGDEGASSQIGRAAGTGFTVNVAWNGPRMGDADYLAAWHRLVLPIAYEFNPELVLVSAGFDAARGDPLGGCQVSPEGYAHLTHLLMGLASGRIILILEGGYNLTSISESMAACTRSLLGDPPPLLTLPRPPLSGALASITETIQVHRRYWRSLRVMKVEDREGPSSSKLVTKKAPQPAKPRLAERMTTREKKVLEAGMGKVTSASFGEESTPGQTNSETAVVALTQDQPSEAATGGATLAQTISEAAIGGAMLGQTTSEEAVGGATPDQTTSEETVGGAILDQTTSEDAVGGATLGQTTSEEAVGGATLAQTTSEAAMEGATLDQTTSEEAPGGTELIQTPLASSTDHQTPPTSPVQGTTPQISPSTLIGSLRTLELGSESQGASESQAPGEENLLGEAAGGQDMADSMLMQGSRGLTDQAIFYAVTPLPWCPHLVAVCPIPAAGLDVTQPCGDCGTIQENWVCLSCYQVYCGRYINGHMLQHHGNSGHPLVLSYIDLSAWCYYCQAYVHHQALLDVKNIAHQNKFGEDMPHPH
Assay: Inhibition of human recombinant HDAC6
valueKind: IC50 (µM)
Answers are plain numbers, in µM.

Batch request: IC50 for each of the following compounds.
1. O=C(CCCCCCC(=O)C(F)(F)F)Nc1ccccc1
2. C[Si](O)(O)CCCCCCC(=O)Nc1ccccc1
3. CCN(CC)C(=S)SSCCCCCC(=O)Nc1ccccc1

Result:
2.2
18
0.068

* * *

Record form. Attribute: pIC50. Fill in for each entry.
Target: Histone deacetylase 8 (Homo sapiens)
Sequence (Q9BY41 whole entry): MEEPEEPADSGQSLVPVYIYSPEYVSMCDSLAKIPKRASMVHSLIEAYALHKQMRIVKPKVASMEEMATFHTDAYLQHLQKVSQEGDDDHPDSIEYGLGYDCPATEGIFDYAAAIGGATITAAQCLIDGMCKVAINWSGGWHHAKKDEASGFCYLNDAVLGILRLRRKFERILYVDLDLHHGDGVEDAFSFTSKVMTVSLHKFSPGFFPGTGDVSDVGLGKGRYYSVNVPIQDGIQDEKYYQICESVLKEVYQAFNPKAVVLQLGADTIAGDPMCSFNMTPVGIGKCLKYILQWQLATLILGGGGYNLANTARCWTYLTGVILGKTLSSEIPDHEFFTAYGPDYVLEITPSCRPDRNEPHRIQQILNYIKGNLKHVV
Experiment: Inhibition of human recombinant HDAC8
Give bare numbers, as −log10 of the molar value.

Solved entries:
C[Si](O)(O)CCCCCCC(=O)Nc1ccccc1 :: 4.57
O=C(CCCCCCC(=O)C(F)(F)F)Nc1ccccc1 :: 5.77

Query molecule follows.
# pIC50 of CP(=O)([O-])CCCCCCC(=O)Nc1ccccc1.[Li+] = 3.41
